GI50 listing for selected compounds.
System: MDA-MB-435
Assay: NCI tumour cell line growth inhibition, 48 h
The source made the active and inactive calls. Cut-off read from the data, not from the text of the source: active = GI50 up to about 1.1 µM and inactive = higher.
observedProperty: GI50

- compound: "COc1ccc(C(OCC2OC(n3cc(C)c(=O)[nH]c3=O)CC2n2cc(Cn3cc(I)c(=O)[nH]c3=O)nn2)(c2ccccc2)c2ccccc2)cc1 (centres undefined)"
  assayValue: "> 100 µM (inactive)"
- compound: "Cc1cn(Cc2cccc(C3=NCCCN3)c2)c(=O)n(Cc2cccc(C3=NCCCN3)c2)c1=O"
  assayValue: "> 100 µM (inactive)"
- compound: "O=C(O)c1cc(O)c2c(c1)Cc1cccc(O)c1C2=O"
  assayValue: "33.6 µM (inactive)"
- compound: "CC(=O)/C=C1\\Nc2sc(C)c(C)c2C(=O)S1"
  assayValue: "47.3 µM (inactive)"

Origin of the recorded values: ChEMBL document CHEMBL1201862
